assay: self-splicing fitness, log relative to wild type (ln ratio); higher = more splicing; Tetrahymena group I intron in knt gene, E. coli kanamycin selection, DiMSum; sequences stand for … in CUCUCU…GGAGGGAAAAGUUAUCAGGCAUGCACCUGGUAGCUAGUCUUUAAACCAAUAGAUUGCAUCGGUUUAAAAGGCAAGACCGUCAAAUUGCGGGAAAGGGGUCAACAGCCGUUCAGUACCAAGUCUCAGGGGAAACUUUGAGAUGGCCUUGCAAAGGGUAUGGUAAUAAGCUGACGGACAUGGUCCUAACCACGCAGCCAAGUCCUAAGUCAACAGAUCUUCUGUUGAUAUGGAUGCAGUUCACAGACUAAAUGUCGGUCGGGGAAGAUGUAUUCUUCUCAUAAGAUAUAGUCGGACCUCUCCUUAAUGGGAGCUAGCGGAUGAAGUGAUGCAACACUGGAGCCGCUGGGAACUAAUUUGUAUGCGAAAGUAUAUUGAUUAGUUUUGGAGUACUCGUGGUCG; conditions: 30 °C;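 also: selection with 25 µg/mL kanamycin versus none on LB agar overnight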
Form field: self-splicing fitness (ln) (one value per entry).

Reference set (3 entries):
        sequence_string           measured_property  assay_result
0  UCCAAGCAAUAUUACGCGAG  self-splicing fitness (ln)         -4.03
1  GGAAAGCAAUAUUACGAACU  self-splicing fitness (ln)        -0.854
2  GCUAAGCAAUAUUACGAGCU  self-splicing fitness (ln)         -2.25

Okay, now this sequence:
# self-splicing fitness (ln) lookup, item UCCGAGCAAUAUUACGUUCC
-3.5

Sourced from the supplement of paper PMC7877785
